# Test System: Protein kinase C alpha type (Homo sapiens) (UniProt P17252)
# Assay Method Text: Inhibition of PKCalpha at 10 uM by HTRF assay relative to control
Property Label: inhibition (%)

Compound	Numeric Result
COc1cccc(Nc2cc(Nc3cccc(C(=O)NCCCn4ccnc4)c3)nc(N)n2)c1	2
Cc1cccc(Oc2ccnc(N3CCN(C(=O)c4c(C)noc4C)CC3)n2)c1	0
COc1ccc(NC(=O)Cc2ccc(Nc3cc(N(C)c4cccc(C)c4)ncn3)cc2)cn1	0
CN(CCc1ccccn1)C(=O)c1cccc(Nc2nccc(Nc3ccc4ncsc4c3)n2)c1	5
CN(CCCn1ccnc1)C(=O)[C@@H]1CCCN1c1nccc(Nc2ccccc2)n1	0
Nc1nc(Nc2ccc3ncsc3c2)cc(N2CCC[C@H]2C(=O)NCCc2cccc(I)c2)n1	0
Clc1ccc2sc(CN3CCN(c4ncnc5c4CN(Cc4ccccc4)CC5)CC3)cc2c1	8
Cc1cccc(CN2CCN(c3cc(N(C)c4cccc(C)c4)ncn3)CC2)c1	3
COC[C@@H]1CCCN1C(=O)[C@@H]1CCCN1c1nccc(Nc2ccccc2)n1	0
Cc1ccc(CN2CCN(c3nccc(C(C#N)c4ccccn4)n3)CC2)cc1 (configuration not stated)	0
COc1ccc(-c2noc(CN3CCN(c4cc(Nc5cccc(O)c5)ncn4)CC3)n2)cc1	0
Cc1cccc(Oc2ccnc(N3CCC[C@H]3C(=O)NCc3cccnc3)n2)c1	0
Cc1cc(C(=O)N2CCN(c3ncnc4c3CN(Cc3ccccc3)CC4)CC2)c(C)n1C	0
CC(=O)CCCCC(=O)N1CCN(c2nccc(Oc3cccc(C)c3)n2)CC1	0
Cc1cccc(N(C)c2cc(Nc3cccc(C(=O)N(C)CCc4ccccn4)c3)ncn2)c1	5
Cc1cccc(N(C)c2cc(Nc3cccc(C(=O)N(CC(C)C)CC(C)C)c3)ncn2)c1	0
Cc1cccc(Nc2nccc(Nc3cccc(C(=O)N(C)CCc4ccccn4)c3)n2)c1	0

---

# Test System: Tyrosine-protein kinase Lyn (Homo sapiens)
# Assay Method Text: Inhibition of Lyn at 10 uM by HTRF assay relative to control
Binary classification by inhibition, with 10% as an inclusive lower bound for y; all other cases are n.

Compound	Classification
O=C(NCc1cccnc1)c1cccc(-c2ccc(Nc3ccc4ncsc4c3)nn2)c1	y
COc1cccc(Nc2cc(Nc3cccc(C(=O)NCCCn4ccnc4)c3)nc(N)n2)c1	n
Cc1cccc(N(C)c2cc(N3CCN(CC(=O)Nc4nc(-c5ccccc5)cs4)CC3)ncn2)c1	n
Cc1cccc(N(C)c2cc(Nc3cccc(C(=O)N4CCCC5CCCCC54)c3)ncn2)c1 (stereo not drawn)	n
COC[C@@H]1CCCN1C(=O)[C@@H]1CCCN1c1cc(Nc2cccc(OC)c2)nc(N)n1	y
COc1ccc(-c2noc(CN3CCN(c4cc(Nc5cccc(O)c5)ncn4)CC3)n2)cc1	n
O=C(C1CCN(c2nccc(Nc3ccccc3)n2)CC1)N1CC[C@@H](O)C1	y
O=C(NCc1ccncc1)c1cccc(Nc2cc(Nc3cccc(Br)c3)ncn2)c1	y

---

# Test System: Insulin-like growth factor 1 receptor (Homo sapiens) (UniProt P08069)
# Sequence (P08069 31-736 limits assumed): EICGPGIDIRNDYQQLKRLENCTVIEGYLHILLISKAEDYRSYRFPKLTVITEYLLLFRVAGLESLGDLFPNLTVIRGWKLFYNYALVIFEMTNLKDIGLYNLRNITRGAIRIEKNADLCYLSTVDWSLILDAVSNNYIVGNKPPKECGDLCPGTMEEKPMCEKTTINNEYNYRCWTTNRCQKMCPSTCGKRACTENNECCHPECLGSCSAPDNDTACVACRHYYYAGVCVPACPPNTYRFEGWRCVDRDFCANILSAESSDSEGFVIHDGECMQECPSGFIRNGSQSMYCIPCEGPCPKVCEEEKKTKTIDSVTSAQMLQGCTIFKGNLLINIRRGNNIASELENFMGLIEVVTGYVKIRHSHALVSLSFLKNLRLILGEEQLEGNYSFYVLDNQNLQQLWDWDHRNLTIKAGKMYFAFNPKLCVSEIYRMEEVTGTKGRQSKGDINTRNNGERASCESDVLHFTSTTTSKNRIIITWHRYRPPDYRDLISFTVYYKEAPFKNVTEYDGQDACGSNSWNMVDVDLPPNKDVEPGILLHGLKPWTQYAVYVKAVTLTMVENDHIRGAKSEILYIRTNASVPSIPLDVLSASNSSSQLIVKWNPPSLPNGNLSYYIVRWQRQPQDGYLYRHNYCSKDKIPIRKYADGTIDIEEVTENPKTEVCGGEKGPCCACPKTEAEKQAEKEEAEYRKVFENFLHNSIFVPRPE
# Sequence (P08069 741-1367 limits assumed): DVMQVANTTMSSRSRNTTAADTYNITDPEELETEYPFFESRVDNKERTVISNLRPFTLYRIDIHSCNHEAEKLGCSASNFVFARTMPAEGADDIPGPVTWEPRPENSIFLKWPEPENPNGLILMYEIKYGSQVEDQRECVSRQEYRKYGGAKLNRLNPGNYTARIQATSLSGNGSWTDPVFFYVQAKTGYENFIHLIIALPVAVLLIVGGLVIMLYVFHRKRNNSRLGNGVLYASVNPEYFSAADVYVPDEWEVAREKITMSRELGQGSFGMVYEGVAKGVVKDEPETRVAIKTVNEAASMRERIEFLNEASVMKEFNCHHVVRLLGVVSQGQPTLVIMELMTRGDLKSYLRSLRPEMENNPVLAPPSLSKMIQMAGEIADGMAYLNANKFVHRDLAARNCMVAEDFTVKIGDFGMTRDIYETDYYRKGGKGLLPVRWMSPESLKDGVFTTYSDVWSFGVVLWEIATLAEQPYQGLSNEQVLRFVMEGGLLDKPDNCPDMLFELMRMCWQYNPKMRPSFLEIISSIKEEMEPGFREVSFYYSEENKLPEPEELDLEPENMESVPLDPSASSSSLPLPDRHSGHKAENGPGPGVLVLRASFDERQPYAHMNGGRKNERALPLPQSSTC
# Assay Method Text: Inhibition of IGF1R at 10 uM by HTRF assay relative to control

Compound Structure	inhibition, %
O=C(NCCc1ccc(O)cc1)c1cccc(Nc2nccc(Nc3ccc4ncsc4c3)n2)c1	2
Cc1cccc(Oc2ccnc(N3CCC[C@H]3C(=O)NCc3cccnc3)n2)c1	0
O=C(NCc1ccncc1)c1cccc(Nc2cc(Nc3cccc(Br)c3)ncn2)c1	5
CN(C)c1ccc(C(=O)N2CCN(c3ncnc4c3CN(Cc3ccccc3)CC4)CC2)c2ccccc12	0
COC[C@@H]1CCCN1C(=O)[C@@H]1CCCN1c1cc(Nc2cccc(OC)c2)nc(N)n1	5

---

# Test System: Protein kinase C gamma type (Homo sapiens)
# Assay Method Text: Inhibition of PKCgamma at 10 uM by HTRF assay relative to control

Molecule	Test System	inhibition
CC(=O)N1CCN(C(=O)c2cccc(Nc3cc(N(C)c4cccc(C)c4)ncn3)c2)CC1	Protein kinase C gamma type (Homo sapiens)	5%
COC[C@@H]1CCCN1C(=O)C1CCCN1c1cc(Nc2cccc(Br)c2)ncn1 (stereo not given in full)	Protein kinase C gamma type (Homo sapiens)	5%
Cc1cccc(Nc2ncnc3c2CN(C(=O)c2ccc(N(C)C)c4ccccc24)CC3)c1	Protein kinase C gamma type (Homo sapiens)	2%
Cc1cccc(N(C)c2cc(Nc3cccc(C(=O)NCc4ccncc4)c3)ncn2)c1	Protein kinase C gamma type (Homo sapiens)	2%
Nc1nc(Nc2ccccc2)cc(N2CCC(C(=O)NCCc3ccccn3)CC2)n1	Protein kinase C gamma type (Homo sapiens)	5%
Cc1cccc(Nc2cc(Nc3cccc(C(=O)N(CC(C)O)CC(C)O)c3)ncn2)c1 (stereo not given)	Protein kinase C gamma type (Homo sapiens)	1%
O=C(NCc1cccnc1)c1cccc(-c2ccc(Nc3ccc4ncsc4c3)nn2)c1	Protein kinase C gamma type (Homo sapiens)	28%
COc1cccc(Nc2cc(N3CCC[C@H]3C(=O)NCCN3CCCCC3)nc(N)n2)c1	Protein kinase C gamma type (Homo sapiens)	2%
Nc1nc(N2CCOCC2)cc(N2CCC(C(=O)NCc3cccs3)CC2)n1	Protein kinase C gamma type (Homo sapiens)	0%
Cc1cccc(N(C)c2cc(Nc3ccc(CC(=O)Nc4ccc5ncsc5c4)cc3)ncn2)c1	Protein kinase C gamma type (Homo sapiens)	5%

---

# Test System: Tyrosine-protein kinase ZAP-70 (Homo sapiens) (UniProt P43403)
# Sequence (whole entry): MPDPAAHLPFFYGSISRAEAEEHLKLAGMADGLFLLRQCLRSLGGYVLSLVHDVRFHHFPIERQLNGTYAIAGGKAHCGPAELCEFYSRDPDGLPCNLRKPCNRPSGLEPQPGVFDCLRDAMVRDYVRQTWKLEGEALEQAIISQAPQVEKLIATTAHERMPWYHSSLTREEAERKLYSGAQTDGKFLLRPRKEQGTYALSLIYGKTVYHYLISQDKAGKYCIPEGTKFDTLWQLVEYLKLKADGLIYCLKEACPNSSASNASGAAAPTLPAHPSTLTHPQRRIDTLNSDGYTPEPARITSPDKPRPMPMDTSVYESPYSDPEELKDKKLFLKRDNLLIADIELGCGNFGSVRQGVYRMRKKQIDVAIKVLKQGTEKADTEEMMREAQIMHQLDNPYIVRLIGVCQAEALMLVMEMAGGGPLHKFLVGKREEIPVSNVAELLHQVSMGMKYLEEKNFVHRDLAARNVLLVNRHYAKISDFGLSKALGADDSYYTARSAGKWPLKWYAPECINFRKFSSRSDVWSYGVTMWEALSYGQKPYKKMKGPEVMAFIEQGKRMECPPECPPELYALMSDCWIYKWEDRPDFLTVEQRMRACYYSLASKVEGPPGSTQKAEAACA
# Assay Method Text: Inhibition of ZAP70 at 10 uM by HTRF assay relative to control
Mark satisfied for reported inhibition of 5% or greater; mark not satisfied for anything smaller.

Molecule	Test System	Classification
O=C(NC1Cc2ccccc2C1)c1cccc(Nc2ccnc(N3CCN(c4ccccc4)CC3)n2)c1	Tyrosine-protein kinase ZAP-70 (Homo sapiens) (UniProt P43403)	satisfied
O=C(NC[C@@H]1CCCO1)c1cccc(Nc2nccc(Nc3ccc4ncsc4c3)n2)c1	Tyrosine-protein kinase ZAP-70 (Homo sapiens) (UniProt P43403)	satisfied
Cc1cccc(N(C)c2cc(Nc3cccc(C(=O)NCc4ccncc4)c3)ncn2)c1	Tyrosine-protein kinase ZAP-70 (Homo sapiens) (UniProt P43403)	satisfied
COc1cccc(Nc2cc(N3CCC[C@H]3C(=O)NCCc3ccc(O)cc3)nc(N)n2)c1	Tyrosine-protein kinase ZAP-70 (Homo sapiens) (UniProt P43403)	not satisfied
Cc1cccc(N(C)c2cc(Nc3cccc(C(=O)NCc4ccc(N(C)C)cc4)c3)ncn2)c1	Tyrosine-protein kinase ZAP-70 (Homo sapiens) (UniProt P43403)	not satisfied
O=C(c1nc(SCc2ccc(Cl)cc2)n2ccccc12)N1CCN(c2ncnc3c2CN(Cc2ccccc2)CC3)CC1	Tyrosine-protein kinase ZAP-70 (Homo sapiens) (UniProt P43403)	not satisfied
Cc1cccc(N(C)c2cc(Nc3cccc(C(=O)N4CCCC5CCCCC54)c3)ncn2)c1 (stereo not drawn)	Tyrosine-protein kinase ZAP-70 (Homo sapiens) (UniProt P43403)	not satisfied

---

# Test System: Proto-oncogene tyrosine-protein kinase Src (Homo sapiens) (UniProt P12931)
# Sequence (P12931 2-536 limits assumed): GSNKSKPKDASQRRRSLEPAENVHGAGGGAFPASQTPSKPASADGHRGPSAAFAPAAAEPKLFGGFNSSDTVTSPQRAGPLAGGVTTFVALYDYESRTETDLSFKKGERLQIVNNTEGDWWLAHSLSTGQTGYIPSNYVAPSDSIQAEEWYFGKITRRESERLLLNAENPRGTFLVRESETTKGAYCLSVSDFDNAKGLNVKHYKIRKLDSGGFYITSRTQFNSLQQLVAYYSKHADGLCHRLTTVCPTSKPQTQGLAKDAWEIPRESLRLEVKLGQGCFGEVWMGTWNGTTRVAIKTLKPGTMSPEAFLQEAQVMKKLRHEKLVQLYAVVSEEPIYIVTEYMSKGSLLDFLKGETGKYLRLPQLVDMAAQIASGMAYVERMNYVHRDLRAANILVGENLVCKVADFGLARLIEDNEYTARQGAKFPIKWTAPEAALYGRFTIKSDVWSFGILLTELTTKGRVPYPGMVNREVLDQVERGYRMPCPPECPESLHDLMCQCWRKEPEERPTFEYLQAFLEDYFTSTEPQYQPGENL
# Assay Method Text: Inhibition of Src at 10 uM by HTRF assay relative to control
Tag: MET if measured inhibition is not below 1%, NOT MET if it is.

Compound	Classification
COc1cccc(Nc2cc(N3CCC[C@H]3C(=O)NCCc3ccc(O)cc3)nc(N)n2)c1	MET
Cc1cccc(N(C)c2cc(Nc3cccc(C(=O)N(CC(C)C)CC(C)C)c3)ncn2)c1	MET
Cc1cccc(N(C)c2cc(Nc3cccc(C(=O)N(C)CCc4ccccn4)c3)ncn2)c1	MET
CC(=O)CCCCC(=O)N1CCN(c2nccc(Oc3cccc(C)c3)n2)CC1	MET
COC(=O)C(CO)NC(=O)[C@@H]1CCCN1c1nccc(Oc2cccc(C)c2)n1 (some centres undefined)	NOT MET
O=C(NC1Cc2ccccc2C1)c1cccc(Nc2ccnc(N3CCN(c4ccccc4)CC3)n2)c1	MET
COC[C@@H]1CCCN1C(=O)[C@@H]1CCCN1c1nccc(Nc2ccccc2)n1	NOT MET
COc1cccc(Nc2cc(Nc3cccc(C(=O)NCCCn4ccnc4)c3)nc(N)n2)c1	MET
Cc1cccc(Oc2ccnc(N3CCN(C(=O)c4c(C)noc4C)CC3)n2)c1	NOT MET
Nc1nc(Nc2ccccc2)cc(N2CCC(C(=O)NCCc3ccccn3)CC2)n1	NOT MET
CN(C)CC(C)(C)CNC(=O)[C@@H]1CCCN1c1nccc(Nc2ccccc2)n1	NOT MET
CC(=O)N1CCN(C(=O)c2cccc(Nc3cc(N(C)c4cccc(C)c4)ncn3)c2)CC1	MET
COc1cccc(Nc2cc(Nc3cccc(C(=O)N(C)CCc4ccccn4)c3)nc(N)n2)c1	MET

Origin of measurements: ChEMBL document CHEMBL1150387
